Where do the numbers come from? From paper PMC6522510.

# Tested on: M07e
# Parameters: species or system AML cell lines (8); Primary HTS, single concentration about 10 uM, Cell Titer Glo viability; log10 luminescence, per cent inhibition relative to cycloheximide control
# Condition parameters: 72 h, relative to cycloheximide control, log10 luminescence; inhibitor
Measure name: M07e %inh (%)

>  <Molecule>
O=C1NC(O)C(c2c[nH]c3ccccc23)=C1c1c[nH]c2ccccc12 (stereo not shown)

>  <Unit abbreviation>
%

>  <Reported>
-1.63

$$$$
>  <Molecule>
Cc1nn(C)c2cc(N(C)c3ccnc(Nc4cccc(S(N)(=O)=O)c4)n3)ccc12

>  <Unit abbreviation>
%

>  <Reported>
4.667

$$$$
>  <Molecule>
O=C1NC(=NCc2c(Cl)cccc2Cl)S/C1=C\c1ccc2ncccc2c1

>  <Unit abbreviation>
%

>  <Reported>
1.964

$$$$
>  <Molecule>
Nc1c(C(=O)c2cccc(CCS(N)(=O)=O)c2)cnn1-c1ccc(F)cc1

>  <Unit abbreviation>
%

>  <Reported>
6.935

$$$$
>  <Molecule>
Cc1cc(C)c2c(n1)sc1c(N)ncnc12

>  <Unit abbreviation>
%

>  <Reported>
-1.463

$$$$
>  <Molecule>
CCOC(=O)C1=C(N)Oc2ccc(Br)cc2[C@H]1[C@H](C#N)C(=O)OCC

>  <Unit abbreviation>
%

>  <Reported>
0.5476

$$$$
>  <Molecule>
COC(=O)C1=C(C)NC(C)=C(C(=O)OC(C)C)C1c1cccc2nonc12 (stereo not shown)

>  <Unit abbreviation>
%

>  <Reported>
0.2973

$$$$
>  <Molecule>
Cn1c(=O)c(Oc2ccc(F)cc2F)cc2cnc(NCC(C)(C)O)nc21

>  <Unit abbreviation>
%

>  <Reported>
5.81

$$$$
>  <Molecule>
Cc1nnc(-c2ccc(C)c(-c3ccc(C(=O)Nc4cccc(C#N)c4)cc3)c2)o1

>  <Unit abbreviation>
%

>  <Reported>
-0.9532

$$$$
>  <Molecule>
CC(=O)N[C@@H](Cc1ccc(OP(=O)(O)O)cc1)C(=O)N[C@H]1CCC(=O)N2CCC[C@@H](C(=O)NCc3ccccc3)N2C1=O

>  <Unit abbreviation>
%

>  <Reported>
-1.273

$$$$
>  <Molecule>
CS(=O)(=O)CCNCc1ccc(-c2ccc3ncnc(Nc4ccc(OCc5ccccc5)c(Cl)c4)c3c2)o1

>  <Unit abbreviation>
%

>  <Reported>
-1.936

$$$$
>  <Molecule>
CC(=O)Nc1cccc(C#Cc2cncnc2Nc2ccc(OCc3cccc(F)c3)c(Cl)c2)n1

>  <Unit abbreviation>
%

>  <Reported>
-1.039

$$$$
>  <Molecule>
COC(=O)Nc1nc2cc(Oc3ccc(NC(=O)Nc4cccc(C(=O)O)c4)cc3)ccc2[nH]1

>  <Unit abbreviation>
%

>  <Reported>
13.83

$$$$
>  <Molecule>
CC(C)(O)CCc1cccc(C(=O)c2cnn(-c3ccc(F)cc3)c2N)c1

>  <Unit abbreviation>
%

>  <Reported>
3.158

$$$$
>  <Molecule>
CC1(OC(=O)c2cccs2)C(=O)C=C2C=C3CCCN3C=C2C1=O (stereo not shown)

>  <Unit abbreviation>
%

>  <Reported>
2.009

$$$$
>  <Molecule>
O=C(N/N=C/c1coc2ccccc2c1=O)c1cccnc1

>  <Unit abbreviation>
%

>  <Reported>
-2.508

$$$$

---

# Tested on: CMS
# Set-up: species or system AML cell lines (8); Primary HTS, single concentration about 10 uM, Cell Titer Glo viability; log10 luminescence, per cent inhibition relative to cycloheximide control
# Condition parameters: 72 h, relative to cycloheximide control, log10 luminescence; inhibitor
# CMS %inh per entry
Measure name: CMS %inh (%)

>  <Compound>
FC(F)(F)c1cccc(Nc2nccc(-c3cnn4nc(-c5ccccc5)ccc34)n2)c1

>  <Measure name>
CMS %inh

>  <Reported>
3.035

$$$$
>  <Compound>
Cn1cc(C2=C(c3cn(C)c4cc(C(N)=O)ccc34)C(=O)NC2=O)c2ccccc21

>  <Measure name>
CMS %inh

>  <Reported>
51.9

$$$$
>  <Compound>
CNC(=O)c1cncc(/C=C/c2ccccc2C)c1

>  <Measure name>
CMS %inh

>  <Reported>
0.1448

$$$$
>  <Compound>
Cn1cc(C2=C(c3c[nH]c4ccccc34)C(=O)NC2=O)c2ccccc21

>  <Measure name>
CMS %inh

>  <Reported>
13.88

$$$$
>  <Compound>
CCOC(=O)C1=C[C@@H](OC(CC)CC)[C@H](NC(C)=O)[C@@H](N)C1 [SJ000555712-1, OSELTAMIVIR PHOSPHATE]

>  <Measure name>
CMS %inh

>  <Reported>
1.863

$$$$
>  <Compound>
N#Cc1cccc(Nc2ncc(-c3ccccc3)o2)c1

>  <Measure name>
CMS %inh

>  <Reported>
-1.613

$$$$
>  <Compound>
C[N+]1(C)CCC(OC(=O)C(O)(c2ccccc2)C2CCCC2)C1 (centres unmarked) [SJ000287387-2, GLYCOPYRROLATE]

>  <Measure name>
CMS %inh

>  <Reported>
-3.738

$$$$
>  <Compound>
CS(=O)(=O)Nc1ccc(-c2cc(-c3ccccc3)cc(C(N)=O)c2N)cc1

>  <Measure name>
CMS %inh

>  <Reported>
-2.317

$$$$

---

# System: MV4-11
# Design: species or system AML cell lines (8); Primary HTS, single concentration about 10 uM, Cell Titer Glo viability; log10 luminescence, per cent inhibition relative to cycloheximide control
# Condition parameters: 72 h, relative to cycloheximide control, log10 luminescence; inhibitor
In this section we review reported MV4-11 %inh values for a set of molecules.
Measure name: MV4-11 %inh

>  <Molecule>
CC1=C(C(=O)Nc2ccc3[nH]nc(C)c3c2)C(c2ccc(C(F)(F)F)cc2)CC(=O)N1 (stereo not shown)

>  <Measure name>
MV4-11 %inh

>  <Reported>
29.81%

$$$$
>  <Molecule>
Cn1cc(C2=C(c3c4n(c5ccccc35)CCNC4)C(=O)NC2=O)c2ccccc21

>  <Measure name>
MV4-11 %inh

>  <Reported>
15.28%

$$$$
>  <Molecule>
NS(=O)(=O)c1cc2c(cc1Cl)NCNS2(=O)=O [SJ000285785-7, HYDROCHLOROTHIAZIDE]

>  <Measure name>
MV4-11 %inh

>  <Reported>
1.232%

$$$$
>  <Molecule>
O=C(Nc1ccc(Oc2ccc3[nH]c(NC(=O)c4ccco4)nc3c2)cc1)Nc1cc(C(F)(F)F)ccc1F

>  <Measure name>
MV4-11 %inh

>  <Reported>
70.61%

$$$$
>  <Molecule>
Fc1ccc(-c2c(-c3ccncc3)[nH]c3nccnc23)cc1

>  <Measure name>
MV4-11 %inh

>  <Reported>
-5.653%

$$$$
>  <Molecule>
NS(=O)(=O)c1cccc(-c2cc3ccncc3cc2OCc2ccccc2)c1

>  <Measure name>
MV4-11 %inh

>  <Reported>
0.8878%

$$$$
>  <Molecule>
CNC(=O)c1sc(-n2cnc3cc(OC)c(OC)cc32)cc1OCc1ccccc1C(F)(F)F

>  <Measure name>
MV4-11 %inh

>  <Reported>
7.836%

$$$$

---

# key: entry, value: M07e %inh
# Tested on: M07e
# Set-up: species or system AML cell lines (8); Primary HTS, single concentration about 10 uM, Cell Titer Glo viability; log10 luminescence, per cent inhibition relative to cycloheximide control
# Condition parameters: 72 h, relative to cycloheximide control, log10 luminescence; inhibitor

>  <Molecule>
Cn1cc(C2=C(c3cn(C)c4c([N+](=O)[O-])cccc34)C(=O)NC2=O)c2ccccc21 [SJ000581096-1]

>  <Tgt>
M07e

>  <Unit abbreviation>
%

>  <M07e %inh>
3.87

$$$$
>  <Molecule>
CCn1c(-c2nonc2N)nc2c(C#CC(C)(C)O)nc(OC[C@@H](N)c3ccccc3)cc21 [SJ000573312-1, LS204454-145A1 | LS204454-146A1]

>  <Tgt>
M07e

>  <Unit abbreviation>
%

>  <M07e %inh>
29.99

$$$$
>  <Molecule>
CN(C)CCCNc1nccc(-c2c(-c3ccc(F)cc3)nn3cc(C(F)(F)F)ccc23)n1 [SJ000573200-1, U14929/105/1]

>  <Tgt>
M07e

>  <Unit abbreviation>
%

>  <M07e %inh>
5.185

$$$$
>  <Molecule>
O=C1NC(=NCCc2ccc(Cl)cc2)S/C1=C\c1ccc2ncccc2c1 [SJ000580969-1]

>  <Tgt>
M07e

>  <Unit abbreviation>
%

>  <M07e %inh>
-1.208

$$$$
>  <Molecule>
CCCc1cc(=O)[nH]c(=S)[nH]1 [SJ000286145-4, PROPYLTHIOURACIL]

>  <Tgt>
M07e

>  <Unit abbreviation>
%

>  <M07e %inh>
2.631

$$$$
>  <Molecule>
CCn1c(-c2nonc2N)nc2cnc(Oc3cccc(NC(=O)c4ccc(OCCN5CCOCC5)cc4)c3)cc21 [SJ000573222-1, HC204505-099A1]

>  <Tgt>
M07e

>  <Unit abbreviation>
%

>  <M07e %inh>
-2.093

$$$$
>  <Molecule>
Nc1c(C(=O)c2cccc(C(O)(CO)CO)c2)cnn1-c1ccc(F)cc1 [SJ000581150-1]

>  <Tgt>
M07e

>  <Unit abbreviation>
%

>  <M07e %inh>
0.2609

$$$$
